- Test system: A549
- Protocol Summary: Cytotoxicity against human A549 cells treated at LA + compound sequent. LA for 24 hrs), LA + GEM (24 hrs additional, total 48 hrs) 2:1 alpha-lipoic acid to compound ratio after 48 hrs by SRB assay in presence of alpha-lipoic acid
- Type: functional, cell-based
pIC50: −log10 of the molar value.

Structure String	pIC50
Nc1ccn([C@@H]2O[C@H](CO)[C@@H](O)C2(F)F)c(=O)n1	7.54

----------
- Test system: MRC5
- Protocol Summary: Cytotoxicity against human MRC5 cells treated at LA + compound sequent. LA for 24 hrs), LA + GEM (24 hrs additional, total 48 hrs) 2:1 alpha-lipoic acid to compound ratio after 48 hrs by SRB assay in presence of alpha-lipoic acid
- Assay type: functional, cell-based

Compound	IC50 [nM]
Nc1ccn([C@@H]2O[C@H](CO)[C@@H](O)C2(F)F)c(=O)n1 [GEMCITABINE]	21.6
